# Tested on: CNE
# assay.info: Solid tumor cell growth inhibition, MTT, 72 h
# Assay type: cell-based, human
# conditions: Homo sapiens, CNE; 72 h, MTT
endpoint.name: IC50 (µg/mL)
Numbers only, in µg/mL.

Worked cases, answers included:
Identify IC50 associated with the compound "C=C1C(=O)[C@]23[C@H](OC(=O)C4CCN(S(=O)(=O)c5cccc([N+](=O)[O-])c5)CC4)[C@H]1CC[C@H]2[C@@]12CO[C@@]3(O)[C@@H](O)[C@@H]1C(C)(C)CCC2=O"
2.95

// fetch IC50 given entry "C=C1C(=O)[C@]23[C@H](O)[C@H]1CC[C@H]2[C@@]12CO[C@]3(O)[C@@H](O)[C@@H]1C(C)(C)CC[C@@H]2O"
5.45

Go through the list and state IC50 for each entry.
1. C=C1C(=O)[C@]23[C@H](OC(=O)c4ccc(Cl)cc4)[C@H]1CC[C@H]2[C@@]12CO[C@@]3(O)[C@@H](O)[C@@H]1C(C)(C)CCC2=O
2. C=C1C(=O)[C@]23[C@H](OC(=O)C4CCN(S(=O)(=O)c5ccccc5[N+](=O)[O-])CC4)[C@H]1CC[C@H]2[C@@]12CO[C@@]3(O)[C@@H](O)[C@@H]1C(C)(C)CCC2=O

[1.39, 3.73]

Output IC50 of "C=C1C(=O)[C@]23[C@H](OC(=O)c4ccccc4Cl)[C@H]1CC[C@H]2[C@@]12CO[C@@]3(O)[C@@H](O)[C@@H]1C(C)(C)CCC2=O"
1.93
